# System: Plenodomus lingam
# assay details: Antifungal activity against Leptosphaeria maculans assessed as mycelial radial growth inhibition on potato dextrose agar at 0.50 mM relative to control
# Assay type: functional
outcome measure: inhibition at 500 µM (%)
Give the number; % is assumed, so skip it.

The reported value for CNC(=S)SCc1c[nH]c2ccccc12 in terms of inhibition at 500 µM is 61

Quick note, inhibition at 500 µM for OCc1c[nH]c2ccccc12 landed at 52

Sure, the documented inhibition at 500 µM for CON1c2ccccc2C(O)C12CN=C(SC)S2 (mixture of isomers) [DIHYDROERUCALEXIN] is 23

inhibition at 500 µM for C=CCNC(=O)SCc1c[nH]c2ccccc12 is 43

Consider COc1cccc2[nH]cc(N=C=S)c12 . Its measured inhibition at 500 µM is 100

Summary for this compound, CON1c2ccccc2C(=O)C12CN=C(SC)S2 (racemic) : inhibition at 500 µM is 40
